# system: human CYP11B1 (Homo sapiens, UniProt P15538)
# Construct: expressed in transfected cells
# Sequence (P15538 25-503): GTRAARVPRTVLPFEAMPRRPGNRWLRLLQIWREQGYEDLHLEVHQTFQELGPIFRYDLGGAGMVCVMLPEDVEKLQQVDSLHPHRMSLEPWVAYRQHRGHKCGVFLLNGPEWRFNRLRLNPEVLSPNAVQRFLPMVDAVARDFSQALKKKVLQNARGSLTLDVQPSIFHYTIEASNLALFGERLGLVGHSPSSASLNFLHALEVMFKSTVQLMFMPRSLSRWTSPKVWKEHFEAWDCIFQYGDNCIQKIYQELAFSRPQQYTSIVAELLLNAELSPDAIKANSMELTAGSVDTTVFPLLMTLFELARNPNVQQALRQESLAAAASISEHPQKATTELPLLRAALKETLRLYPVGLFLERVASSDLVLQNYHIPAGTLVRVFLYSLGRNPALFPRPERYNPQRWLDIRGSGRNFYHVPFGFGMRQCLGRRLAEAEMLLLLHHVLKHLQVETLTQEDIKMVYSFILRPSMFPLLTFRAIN
# run description: G-402 cellular enzyme assay, human CYP11B1 (cortisol release, HTRF)
# Format: cell-based
# condition notes: G-402 cells expressing human CYP11B1; 1 μM Deoxycortisol
Below, each of the compounds is paired with its reported EC50 value.

compound: CN1C(=O)CCc2cc(-c3cncc(Cn4c(F)cccc4=O)c3)ccc21 [Example 18]
EC50, nM: 172
//
compound: CN1C(=O)CCc2cc(-c3cncc(Cn4ccsc4=O)c3)ccc21 [Example 3]
EC50, nM: 275
//
compound: CN1C(=O)CCc2cc(-c3cncc(Cn4cc(Cl)ccc4=O)c3)c(F)cc21 [Example 21]
EC50, nM: 569
//
compound: Cc1c(Cn2c(Cl)cccc2=O)cncc1-c1cc2c(cc1F)N(C)C(=O)CC2 [Example 25]
EC50, nM: 234
//
compound: Cc1ccn(Cc2cncc(-c3cc4c(cc3F)N(C)C(=O)CC4)c2)c(=O)c1 [Example 20]
EC50, nM: 506
//
compound: CN1C(=O)CCc2cc(-c3cncc(Cn4cc(C(F)(F)F)cc(F)c4=O)c3)ccc21 [Example 5]
EC50, nM: 1080
//
compound: CN1C(=O)CCc2cc(-c3cncc(Cn4ccccc4=O)c3)ccc21 [Example 10]
EC50, nM: 1230
//
compound: Cc1c(Cn2cccc(F)c2=O)cncc1-c1cc2c(cc1F)N(C)C(=O)CC2 [Example 26]
EC50, nM: 44.8
//
compound: Cc1c(Cn2c(F)cccc2=O)cncc1-c1cc2c(cc1F)N(C)C(=O)CC2 [Example 27]
EC50, nM: 91.3

Hello, the source for this data is patent US9593107B2, in case you need it.
